Target: alpha2C receptor (Homo sapiens)
Construct: expressed in transfected cells; host or cells: NIH-3T3
Sequence (P18825 whole entry): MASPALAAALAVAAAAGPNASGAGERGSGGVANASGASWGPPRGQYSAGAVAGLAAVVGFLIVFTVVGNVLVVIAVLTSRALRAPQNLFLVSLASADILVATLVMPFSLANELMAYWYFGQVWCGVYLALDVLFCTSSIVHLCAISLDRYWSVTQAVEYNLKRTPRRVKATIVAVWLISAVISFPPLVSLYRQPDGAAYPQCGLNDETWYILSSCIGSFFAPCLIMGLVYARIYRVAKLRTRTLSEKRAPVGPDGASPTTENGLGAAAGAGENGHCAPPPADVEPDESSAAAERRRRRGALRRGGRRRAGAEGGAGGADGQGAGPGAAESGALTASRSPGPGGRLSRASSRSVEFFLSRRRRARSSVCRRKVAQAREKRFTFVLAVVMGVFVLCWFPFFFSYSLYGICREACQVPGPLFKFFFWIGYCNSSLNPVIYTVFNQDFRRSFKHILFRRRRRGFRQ
Assay: Receptor Selection and Amplification Technology (RSAT) assay, alpha2C
Type: cell-based
Conditions: RSAT, NIH-3T3 cells cotransfected with receptor and Gq/i5; not active = not active at concentrations less than 10 micromolar; read-out: Alpha 2C EC50
Entries whose EC50 is below 100 nM take Yes; entries at or above 100 nM take No.

[ask] # check: EC50 < 100 nM for O=C(NCCF)NC1Cc2cccc(Cl)c2C1 (centres unmarked)
[reply] Yes

[ask] # check: EC50 < 100 nM for O=C(NCCF)NC1CCc2cccc(F)c21 (centres unmarked)
[reply] Yes

[ask] # check: EC50 < 100 nM for O=C(NCCF)NC1CCc2ccc(Br)cc21 (centres unmarked)
[reply] No

[ask] # check: EC50 < 100 nM for CCC1=C(C)C(NC(=O)NCCF)CC1 (centres unmarked)
[reply] No

[ask] # check: EC50 < 100 nM for "O=C(NCCF)NC1Cc2ccccc2C1"
[reply] No

[ask] # check: EC50 < 100 nM for O=C(NCCF)NC1CCc2c(O)cccc21 (centres unmarked)
[reply] Yes

[ask] # check: EC50 < 100 nM for COc1cccc2c1C(NC(=O)NCCF)CC2 (centres unmarked)
[reply] No

[ask] # check: EC50 < 100 nM for O=C(NCCF)NC1CCCc2sccc21 (centres unmarked)
[reply] Yes

[ask] # check: EC50 < 100 nM for CC1=C(C)C(NC(=O)NCCF)CC1 (centres unmarked)
[reply] No

[ask] # check: EC50 < 100 nM for Cc1cccc2c1CCCC2NC(=O)NCCF (centres unmarked)
[reply] No

[ask] # check: EC50 < 100 nM for O=C(NCCF)NC1CCCCc2ccc(F)cc21 (centres unmarked)
[reply] No

[ask] # check: EC50 < 100 nM for COc1cccc2c1CC(NC(=O)NCCF)C2 (centres unmarked)
[reply] Yes

[ask] # check: EC50 < 100 nM for COc1ccc2c(c1)C(NC(=O)NCCF)CC2 (centres unmarked)
[reply] No

[ask] # check: EC50 < 100 nM for CCc1cccc2c1CCCC2NC(=O)NCCF (centres unmarked)
[reply] No

[ask] # check: EC50 < 100 nM for COc1cccc2c1CCCC2NC(=O)NCCF (centres unmarked)
[reply] No

[ask] # check: EC50 < 100 nM for COc1cccc2c1CCC2NC(=O)NCCF (centres unmarked)
[reply] No

[ask] # check: EC50 < 100 nM for Cc1cc(C)c2c(c1)C(NC(=O)NCCF)CCC2 (centres unmarked)
[reply] No

[ask] # check: EC50 < 100 nM for CC1CC(NC(=O)NCCF)c2ccccc21 (centres unmarked)
[reply] No

[ask] # check: EC50 < 100 nM for Cc1cccc2c1CCC2NC(=O)NCCF (centres unmarked)
[reply] Yes

[ask] # check: EC50 < 100 nM for O=C(NCCF)NC1CCCCc2ccccc21 (centres unmarked)
[reply] No

[ask] # check: EC50 < 100 nM for CC1=CC(NC(=O)NCCF)CC1 (centres unmarked)
[reply] No

[ask] # check: EC50 < 100 nM for CC1=C(C=O)CCCC1NC(=O)NCCF (centres unmarked)
[reply] No

[ask] # check: EC50 < 100 nM for O=C(NCCF)NC1CCc2ccc(F)cc21 (centres unmarked)
[reply] Yes

[ask] # check: EC50 < 100 nM for "O=C(NCCF)N[C@@H]1CCc2ccccc21"
[reply] No

[ask] # check: EC50 < 100 nM for Cc1ccc2c(c1)C(NC(=O)NCCF)CC2 (centres unmarked)
[reply] No

[ask] # check: EC50 < 100 nM for O=C(NCCF)NC1CCc2ccc(Cl)c(Cl)c21 (centres unmarked)
[reply] Yes

---

Molecular target: alpha2B receptor (Homo sapiens, UniProt P18089)
Construct: expressed in transfected cells; host or cells: NIH-3T3
Sequence (P18089 whole entry): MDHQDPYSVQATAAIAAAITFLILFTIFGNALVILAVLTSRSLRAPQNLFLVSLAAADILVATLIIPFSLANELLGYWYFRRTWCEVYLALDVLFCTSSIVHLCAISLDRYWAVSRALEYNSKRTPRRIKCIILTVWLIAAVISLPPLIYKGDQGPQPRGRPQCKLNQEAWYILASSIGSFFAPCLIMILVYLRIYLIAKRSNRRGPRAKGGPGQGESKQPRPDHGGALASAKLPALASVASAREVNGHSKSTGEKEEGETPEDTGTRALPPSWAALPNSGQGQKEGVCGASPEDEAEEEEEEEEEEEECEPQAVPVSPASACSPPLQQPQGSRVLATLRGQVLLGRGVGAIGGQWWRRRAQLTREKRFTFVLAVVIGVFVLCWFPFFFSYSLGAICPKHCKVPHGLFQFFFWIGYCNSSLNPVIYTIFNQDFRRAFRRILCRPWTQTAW
Experiment: Receptor Selection and Amplification Technology (RSAT) assay, alpha2B
Format: cell-based
Conditions: RSAT, NIH-3T3 cells cotransfected with receptor and Gq/i5; not active = not active at concentrations less than 10 micromolar; read-out: Alpha 2B EC50
Assign log10(EC50) to each entry below.
Values below are the log10 of the recorded EC50, with µM as the unit.

[ask] Give the reported log10(EC50) for COc1cccc2c1C(NC(=O)NCCF)CC2 (centres unmarked) (system: alpha2B receptor (Homo sapiens, UniProt P18089)).
[reply] -0.26

[ask] Give the reported log10(EC50) for O=C(NCCF)NC1CCc2cccc(F)c21 (centres unmarked) (system: alpha2B receptor (Homo sapiens, UniProt P18089)).
[reply] -2.06

[ask] Give the reported log10(EC50) for CC1Cc2ccccc2C1NC(=O)NCCF (centres unmarked) (system: alpha2B receptor (Homo sapiens, UniProt P18089)).
[reply] -1.58

[ask] Give the reported log10(EC50) for O=C(NCCF)NC1CCc2ccccc2C1 (centres unmarked) (system: alpha2B receptor (Homo sapiens, UniProt P18089)).
[reply] -0.65

[ask] Give the reported log10(EC50) for O=C(NCCF)NC1CCc2cc(Cl)ccc21 (centres unmarked) (system: alpha2B receptor (Homo sapiens, UniProt P18089)).
[reply] -0.07

[ask] Give the reported log10(EC50) for "O=C(NCCF)N[C@@H]1CCc2ccccc21" (system: alpha2B receptor (Homo sapiens, UniProt P18089)).
[reply] -0.25

[ask] Give the reported log10(EC50) for CCc1cccc2c1CCC2NC(=O)NCCF (centres unmarked) (system: alpha2B receptor (Homo sapiens, UniProt P18089)).
[reply] -1.97

[ask] Give the reported log10(EC50) for O=C(NCCF)NC1CCc2ccccc21 (centres unmarked) (system: alpha2B receptor (Homo sapiens, UniProt P18089)).
[reply] -2.20

[ask] Give the reported log10(EC50) for O=C(NCCF)NC1CCCc2occc21 (centres unmarked) (system: alpha2B receptor (Homo sapiens, UniProt P18089)).
[reply] -1.05

[ask] Give the reported log10(EC50) for Cc1ccc2c(c1)CCC2NC(=O)NCCF (centres unmarked) (system: alpha2B receptor (Homo sapiens, UniProt P18089)).
[reply] -0.61

[ask] Give the reported log10(EC50) for "O=C(NCCF)N[C@H]1CCc2ccccc21" (system: alpha2B receptor (Homo sapiens, UniProt P18089)).
[reply] -2.80

[ask] Give the reported log10(EC50) for O=C(NCCF)NC1CCc2c(F)cccc21 (centres unmarked) (system: alpha2B receptor (Homo sapiens, UniProt P18089)).
[reply] -2.74

[ask] Give the reported log10(EC50) for O=C(NCCF)NC1CCc2ccc(Cl)cc21 (centres unmarked) (system: alpha2B receptor (Homo sapiens, UniProt P18089)).
[reply] -1.92

[ask] Give the reported log10(EC50) for O=C(NCCF)NC1CCc2cc(F)ccc21 (centres unmarked) (system: alpha2B receptor (Homo sapiens, UniProt P18089)).
[reply] -1.06

---

Target: alpha2C receptor (Homo sapiens)
Construct: expressed in transfected cells; host or cells: NIH-3T3
Assay: Receptor Selection and Amplification Technology (RSAT) assay, alpha2C
Type: cell-based
Settings: RSAT, NIH-3T3 cells cotransfected with receptor and Gq/i5; not active = not active at concentrations less than 10 micromolar; read-out: Alpha 2C EC50
resultType: pEC50
Scale note: pEC50 = -log10(concentration in M).

[ask] Give the reported pEC50 for O=C(NCCF)NC1CCc2ccccc21 (centres unmarked) (system: alpha2C receptor (Homo sapiens)).
[reply] 6.72

[ask] Give the reported pEC50 for O=C(NCCF)NC1Cc2cccc(F)c2C1 (centres unmarked) (system: alpha2C receptor (Homo sapiens)).
[reply] 6.74

[ask] Give the reported pEC50 for Nc1cccc2c1CCC2NC(=O)NCCF (centres unmarked) (system: alpha2C receptor (Homo sapiens)).
[reply] 5.89

[ask] Give the reported pEC50 for CC1CCC(NC(=O)NCCF)c2ccccc21 (centres unmarked) (system: alpha2C receptor (Homo sapiens)).
[reply] 6.55

[ask] Give the reported pEC50 for O=C(NCCF)NC1CCc2c(Cl)cccc21 (centres unmarked) (system: alpha2C receptor (Homo sapiens)).
[reply] 6.94

[ask] Give the reported pEC50 for O=C(NCCF)NC1CCCc2occc21 (centres unmarked) (system: alpha2C receptor (Homo sapiens)).
[reply] 6.34

[ask] Give the reported pEC50 for CC1=C(C)C(NC(=O)NCCF)CCC1 (centres unmarked) (system: alpha2C receptor (Homo sapiens)).
[reply] 6.29

[ask] Give the reported pEC50 for COc1ccc2c(c1)CCC2NC(=O)NCCF (centres unmarked) (system: alpha2C receptor (Homo sapiens)).
[reply] 5.84

[ask] Give the reported pEC50 for O=C(NCCF)NC1CCc2ncccc21 (centres unmarked) (system: alpha2C receptor (Homo sapiens)).
[reply] 5.61

[ask] Give the reported pEC50 for O=C(NCCF)NC1CCc2ccc(F)c(F)c21 (centres unmarked) (system: alpha2C receptor (Homo sapiens)).
[reply] 6.93

[ask] Give the reported pEC50 for O=C(NCCF)NC1C=C(CO)CCC1 (centres unmarked) (system: alpha2C receptor (Homo sapiens)).
[reply] 5.59

[ask] Give the reported pEC50 for O=C(NCCF)NC1CCc2cccc(Br)c21 (centres unmarked) (system: alpha2C receptor (Homo sapiens)).
[reply] 6.15

[ask] Give the reported pEC50 for CC1=CC(NC(=O)NCCF)CCC1 (centres unmarked) (system: alpha2C receptor (Homo sapiens)).
[reply] 6.28
